B1: ALDH8A1 (parent)
chain: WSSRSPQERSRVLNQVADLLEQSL

# Variants of: B1
# test-description: protein stability index of a GFP-peptide fusion (GPS, HEK-293T) (PSI 1-6); higher = more stable;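 further: lentivirally expressed fusions sorted by FACS into six bins by GFP to DsRed ratio, PSI derived from sequencing read proportions per bin multiplied by bin number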
# experimental-setup: c terminus: a fixed tail appended
property: protein stability index
API note: the answer field is a bare number with no unit suffix.

variant-code: A17S
protein stability index: 3.02

variant-code: R11T
protein stability index: 2.48

variant-code: Q7P
protein stability index: 2.9

variant-code: S10A
protein stability index: 2.41

variant-code: Q15H
protein stability index: 2.13

variant-code: Q15C
protein stability index: 1.81

variant-code: W1R
protein stability index: 3.52

variant-code: L24P
protein stability index: 4.16

variant-code: R9T
protein stability index: 2.23

variant-code: Q15S
protein stability index: 2.74

Qu. What does the record list as protein stability index for D18M ?
Ans. 2.17

Qu. // next record V12K
Ans. 3.07

Qu. // next record R4S
Ans. 2.44

Qu. // next record L19R
Ans. 3.98
